Values from PubChem BioAssay (NCI)

- System: UACC-257 melanoma
- Assay info: NCI-60 one-dose screen, 48 h (100 = growth as untreated, 0 = no growth, -100 = all killed)
- Assay conditions: 10 µM unless noted
This is part of a sample that, as a whole, favours compounds with a hit. Of some 83,000 tested, about 20% had one in any assay.

Compound	growth (%)
O=C(Cc1ccccc1)NC(O)C(Cl)(Cl)Cl (stereo unspecified)	103
O=C1CCCCC1CN1CCCCC1 (stereo unspecified)	96.2
N#CC(NC(=O)CCl)=C(Cl)Cl	3.34
CCOC(=O)P(=O)(OCC)OCC	102
O=[N+]([O-])c1cc(Cl)c(Cl)c([N+](=O)[O-])c1Cl	16.1
CO[C@@H]([CH2][Hg][O]C(=O)c1ccccc1)[C@@H]([CH2][Hg][O]C(=O)c1ccccc1)OC	90.7
Cc1ccc(NC2=N[C@]34CC(=O)CC[C@]3(C)[C@H]3CC[C@]5(C)C(=O)CC[C@H]5[C@@H]3C[C@@H]4S2)c(C)c1	65.6
O=C=Nc1ccc(Br)cc1	110
CCCC[C@H]1C(=O)O[C@H](C)[C@H](NC(=O)c2cccc(NC=O)c2O)C(=O)O[C@@H](C)[C@@H]1OC(=O)CC(C)C	42.8
Nc1cccnc1	82.9
CC1=CC(=O)CCC12CCOC2=O (stereo unspecified)	97.9
C=CC1CN2CCC1CC2C(O)c1ccnc2ccccc12 (stereo unspecified)	158
CC(=O)Nc1nc2c(s1)C1=CC[C@H]3[C@@H]4CC[C@H](OC(C)=O)[C@@]4(C)CC[C@@H]3[C@@]1(C)CC2	79.2
Oc1cc(Cl)ccc1Oc1ccc(Cl)cc1Cl	21.4
COc1ccc(N(CC(=O)NCCC[Te]c2ccccc2)C(=O)c2ccccc2)cc1	95.4
CO/N=C1\CC[C@]2(C)[C@H]3CC[C@]4(C)C(=O)CC[C@H]4[C@@H]3C[C@@H]3SC(N)=N[C@@]32C1	101
CCCn1cc2c3c(cccc31)[C@H]1C[C@@H](C)CN(C)[C@@H]1C2	78.6
CC[C@H](C)[C@H](NC(=O)CN(C)C)C(=O)N(C)[C@H](C[C@@H](OC(C)=O)c1nc(C(=O)NC23CC(C(=O)OC)(C2)C3)cs1)C(C)C	46.8
CCOP(=O)(OCC)C(=O)N(CC)CC	88.4
O=C(O)c1ccccc1N(CCO)CCCl	99
CC[C@H](C)[C@H](NC(=O)c1ncccn1)C(=O)N(C)[C@H](C[C@@H](OC(C)=O)c1nc(C(=O)N[C@@H](Cc2ccccc2)C[C@H](C)C(=O)OC)cs1)C(C)C	50.2
CC12CCC3C4CCC(=O)C=C4CCC3C1CC1CC(=O)OC12 (stereo unspecified)	80.7
OCCN=Cc1c[nH]c2ccccc12	110
C=CCOC(=O)C(Br)CC (stereo unspecified)	104
C[C@]12CC[C@H]3[C@@H](C[C@@H]4SC(Nc5cccc(F)c5)=N[C@@]45CC(=O)CC[C@]35C)[C@@H]1CCC2=O	73
Oc1cc(N2CC2)c(O)cc1N1CC1	-47.1
O=C1NC(=O)C(=C/C=C/c2ccccc2)C(=O)N1	38.7
CN1C2CCC1[C@@H](COC(=O)c1ccccc1)[C@@H](O)C2 (stereo partly specified)	97.1
CC[C@H](C)[C@H](NC(=O)CN(C)C)C(=O)N(C)[C@H](C[C@@H](OC(C)=O)c1nc(C(=O)NC23C4C5C2C2C3C4C52C(=O)OC)cs1)C(C)C (stereo partly specified)	49.2
O=Cc1cn(Cc2ccccc2)c2ccccc12	37.8
CNC(=O)CCl	92.5
c1ccc(CCN2CCCCC2)nc1	108
CN1CCC2(CC1)C(C#N)C(=O)NC(=O)C2C#N (stereo unspecified)	90.7
O=CC1(c2ccccc2)CCN(Cc2ccccc2)CC1	99.5
COC(=O)[C@@H](C)C[C@H](Cc1ccccc1)NC(=O)c1cccc([C@@H](C[C@H](C(C)C)N(C)C(=O)[C@@H](NC(=O)[C@H]2CCCCN2C)C2CC2)OC(C)=O)n1	36.4
C[C@]12CCc3nc(-c4ccc(O)c(O)c4)sc3C1=CC[C@@H]1[C@@H]2CC[C@]2(C)C(=O)CC[C@@H]12	91.4
CC[C@H](C)[C@H](NC(=O)[C@H]1CCCCN1C)C(=O)N(C)[C@H](C[C@@H](OC(C)=O)c1nc(C(=O)N[C@@H](Cc2ccccc2)C[C@H](C)C(=O)O)cs1)C(C)C	49.3
C/C(=N/OC(=O)N(C)C)c1ccc(Cl)c(Cl)c1	97.4
C[C@]12CCc3sc(Nc4ccc(F)cc4F)nc3C1=CC[C@@H]1[C@@H]2CC[C@]2(C)C(=O)CC[C@@H]12	71.9
CNC(=O)O/N=C(\SC)C(=O)N(C)C	103
Cn1cc(C(=O)C[n+]2ccccc2)c2ccccc21	111
